# PROTOCOL_DETAILS: Brain concentration and brain/plasma ratio in mouse after 10 mg/kg p.o.
# Format: in vivo
# DETAILS: brain, po, 10 mg/kg, PO 10 mg/kg, 2.00 h, individual animal R1, read-out: Brain Concentration, R1 + 3n
concentration at 2 h overview
Report the figure in ng/g without appending any unit label.

• CCN1CCN(Cc2ccc(Nc3ncc(F)c(-c4cc(F)c5nc(C)n(C(C)C)c5c4)n3)nc2)CC1 [abemaciclib, reference compound] = 216

In: Name the recorded concentration at 2 h for CCN1CCN(Cc2ccc(Nc3ncc(F)c(-c4ccc5nn(C)c(C(C)C)c5c4)n3)nc2)CC1 .
Out: 954
